- Test system: duck salad
- Protocol Text: Test C flood test plant response rating 0 to 100
- Type: in vivo, Heteranthera limosa
- Condition: flood test species listed under POSTEMERGENCE, 62 g/ha, 0 to 100 scale

>  <Compound>
COC(=O)c1cc(-c2nn3c(c2Cl)CCCC3)c(F)cc1Cl

>  <Plant response rating Duck salad>
25

$$$$
>  <Compound>
C#CC(C)N1C(=O)COc2cc(F)c(-c3nn4c(c3Cl)CCCC4)cc21 (stereo not drawn)

>  <Plant response rating Duck salad>
0

$$$$
>  <Compound>
C=CCN1C(=O)COc2cc(F)c(-c3nn4c(c3Br)CCCC4)cc21

>  <Plant response rating Duck salad>
30

$$$$

* * *

# Plant response rating, Velvetleaf listing for each entry below
- Tested on: velvetleaf
- Protocol Text: Test B preemergence/postemergence greenhouse plant response rating 0 to 10
- Type: in vivo, Abutilon theophrasti
- Condition: POSTEMERGENCE, Rate 10 g/ha; 0 to 10 scale
Quantity Name: Plant response rating, Velvetleaf

>  <Molecule>
C#CC(C)N1C(=O)COc2cc(F)c(-c3nn4c(c3Cl)CCCC4)cc21 (stereo not drawn)

>  <Quantity Name>
Plant response rating, Velvetleaf

>  <Reported Value>
9

$$$$
>  <Molecule>
COCN1C(=O)COc2cc(F)c(-c3nn4c(c3Cl)CCCC4)cc21

>  <Quantity Name>
Plant response rating, Velvetleaf

>  <Reported Value>
10

$$$$
>  <Molecule>
COCN1C(=O)COc2cc(F)c(-c3nn4c(c3Br)CCCC4)cc21

>  <Quantity Name>
Plant response rating, Velvetleaf

>  <Reported Value>
9

$$$$
>  <Molecule>
CC(C#N)Oc1cc(-c2nn3c(c2Cl)CCCC3)c(F)cc1Cl (stereo not drawn)

>  <Quantity Name>
Plant response rating, Velvetleaf

>  <Reported Value>
7

$$$$
>  <Molecule>
CCN1C(=O)COc2cc(F)c(-c3nn4c(c3Cl)CCCC4)cc21

>  <Quantity Name>
Plant response rating, Velvetleaf

>  <Reported Value>
8

$$$$
>  <Molecule>
CCCN1C(=O)COc2cc(F)c(-c3nn4c(c3Cl)CCCC4)cc21

>  <Quantity Name>
Plant response rating, Velvetleaf

>  <Reported Value>
10

$$$$

* * *

# Plant response rating, Corn listing for each entry below
- System: corn
- Protocol Text: Test B preemergence/postemergence greenhouse plant response rating 0 to 10
- Type: in vivo, Zea mays
- Condition: POSTEMERGENCE, Rate 10 g/ha; 0 to 10 scale
Quantity Name: Plant response rating, Corn

>  <Compound>
C#CCOC(=O)COc1cc(-c2nn3c(c2Cl)CCCC3)c(F)cc1Cl

>  <Quantity Name>
Plant response rating, Corn

>  <Reported Value>
3

$$$$
>  <Compound>
C=CCOC(=O)COc1cc(-c2nn3c(c2Cl)CCCC3)c(F)cc1Cl

>  <Quantity Name>
Plant response rating, Corn

>  <Reported Value>
2

$$$$
>  <Compound>
CCCCN1C(=O)COc2cc(F)c(-c3nn4c(c3Cl)CCCC4)cc21

>  <Quantity Name>
Plant response rating, Corn

>  <Reported Value>
3

$$$$
>  <Compound>
CC(C#N)Oc1cc(-c2nn3c(c2Cl)CCCC3)c(F)cc1Cl (centres unmarked)

>  <Quantity Name>
Plant response rating, Corn

>  <Reported Value>
3

$$$$
>  <Compound>
C#CCN1C(=O)COc2cc(F)c(-c3nn4c(c3Cl)CCCC4)cc21

>  <Quantity Name>
Plant response rating, Corn

>  <Reported Value>
4

$$$$

* * *

# Plant response rating (0 to 100), Downy Brome listing for each entry below
- Tested on: downy brome
- Protocol Text: Test C preemergence/postemergence greenhouse plant response rating 0 to 100
- Assay type: in vivo, Bromus tectorum
- Condition: Rate 31 g/ha; POSTEMERGENCE
- Source text: The compounds evaluated in this test were formulated in a non-phytoxic solvent and applied to the soil surface before plant seedlings emerged (preemergence application), to water that covered the soil surface (flood application), and to plants that were in the one-to-four leaf stage (postemergence application). A sandy loam soil was used for the preemergence and postemergence tests, while a silt loam soil was used in the flood test. […]
Quantity Name: Plant response rating (0 to 100), Downy Brome

>  <Query Smiles>
C=C(Cl)COc1cc(-c2nn3c(c2Cl)CCCC3)c(F)cc1Cl

>  <Reported Value>
40

$$$$
>  <Query Smiles>
CCOCOc1cc(-c2nn3c(c2Cl)CCCC3)c(F)cc1Cl

>  <Reported Value>
70

$$$$
>  <Query Smiles>
Fc1cc(Cl)ccc1-c1nn2c(c1Br)CCCC2

>  <Reported Value>
50

$$$$
>  <Query Smiles>
CCOC(=O)COc1cc(-c2nn3c(c2Cl)CCCC3)c(F)cc1Cl

>  <Reported Value>
30

$$$$

* * *

- Test system: barnyardgrass
- Protocol Text: Test B preemergence/postemergence greenhouse plant response rating 0 to 10
- Assay type: in vivo, Echinochloa crus-galli
- Condition: POSTEMERGENCE, Rate 10 g/ha; 0 to 10 scale
Quantity Name: Plant response rating, Barnyardgrass

>  <Molecule>
CCCCN1C(=O)COc2cc(F)c(-c3nn4c(c3Cl)CCCC4)cc21 [Compound 57]

>  <Reported Value>
3

$$$$
>  <Molecule>
CC(C#N)Oc1cc(-c2nn3c(c2Cl)CCCC3)c(F)cc1Cl (stereo not drawn) [Compound 60]

>  <Reported Value>
3

$$$$
>  <Molecule>
C#CC(C)N1C(=O)COc2cc(F)c(-c3nn4c(c3Cl)CCCC4)cc21 (stereo not drawn) [Compound 50]

>  <Reported Value>
3

$$$$
>  <Molecule>
C#CCN1C(=O)COc2cc(F)c(-c3nn4c(c3Br)CCCC4)cc21 [Compound 56]

>  <Reported Value>
3

$$$$
>  <Molecule>
COCN1C(=O)COc2cc(F)c(-c3nn4c(c3Cl)CCCC4)cc21 [Compound 55]

>  <Reported Value>
2

$$$$
>  <Molecule>
CCCN1C(=O)COc2cc(F)c(-c3nn4c(c3Br)CCCC4)cc21 [Compound 63]

>  <Reported Value>
3

$$$$

* * *

# Plant response rating, Bedstraw listing for each entry below
- Tested on: bedstraw
- Protocol Text: Test B preemergence/postemergence greenhouse plant response rating 0 to 10
- Type: in vivo, Galium aparine
- Condition: Rate 200 g/ha, PREEMERGENCE; 0 to 10 scale

>  <Molecule>
CC(C)OC(=O)c1cc(-c2nn3c(c2Cl)CCCC3)c(F)cc1Cl [Compound 44]

>  <Plant response rating, Bedstraw>
10

$$$$
>  <Molecule>
CCC(=O)Oc1cc(-c2nn3c(c2Cl)CCCC3)c(F)cc1Cl [Compound 47]

>  <Plant response rating, Bedstraw>
9

$$$$
>  <Molecule>
Clc1ccc(-c2nc3n(c2Br)CCCC3)c(Cl)c1 [Compound 2]

>  <Plant response rating, Bedstraw>
3

$$$$
>  <Molecule>
COC(=O)C(C)Oc1cc(-c2nn3c(c2Cl)CCCC3)c(F)cc1Cl (stereo not drawn) [Compound 28]

>  <Plant response rating, Bedstraw>
10

$$$$
>  <Molecule>
COc1cc(-c2nn3c(c2Cl)CCCC3)c(F)cc1Cl [Compound 29]

>  <Plant response rating, Bedstraw>
9

$$$$
>  <Molecule>
C=CCOc1cc(-c2nn3c(c2Br)CCCC3)c(F)cc1Cl [Compound 37]

>  <Plant response rating, Bedstraw>
8

$$$$

* * *

# Plant response rating, Lambsquarter listing for each entry below
- Tested on: lambsquarters
- Protocol Text: Test B preemergence/postemergence greenhouse plant response rating 0 to 10
- Format: in vivo, Chenopodium album
- Condition: POSTEMERGENCE, Rate 50 g/ha; 0 to 10 scale

>  <Compound>
C=CCN1C(=O)COc2cc(F)c(-c3nn4c(c3Br)CCCC4)cc21 [Compound 41]

>  <Test Target>
lambsquarters

>  <Plant response rating, Lambsquarter>
10

$$$$
>  <Compound>
C#CCN1C(=O)COc2cc(F)c(-c3nn4c(c3Br)CCCC4)cc21 [Compound 56]

>  <Test Target>
lambsquarters

>  <Plant response rating, Lambsquarter>
10

$$$$
>  <Compound>
O=C1COc2cc(F)c(-c3nn4c(c3Br)CCCC4)cc2N1 [Compound 80]

>  <Test Target>
lambsquarters

>  <Plant response rating, Lambsquarter>
10

$$$$
>  <Compound>
C=CCOc1cc(-c2nn3c(c2Br)CCCC3)c(F)cc1Cl [Compound 37]

>  <Test Target>
lambsquarters

>  <Plant response rating, Lambsquarter>
9

$$$$
>  <Compound>
CCOC(=O)COc1cc(-c2nn3c(c2Cl)CCCC3)c(F)cc1Cl [Compound 42]

>  <Test Target>
lambsquarters

>  <Plant response rating, Lambsquarter>
9

$$$$
>  <Compound>
CCOC(=O)COc1cc(-c2nn3c(c2Cl)CCCC3)c(Cl)cc1Cl [Compound 73]

>  <Test Target>
lambsquarters

>  <Plant response rating, Lambsquarter>
9

$$$$
>  <Compound>
CCC(=O)Oc1cc(-c2nn3c(c2Cl)CCCC3)c(F)cc1Cl [Compound 47]

>  <Test Target>
lambsquarters

>  <Plant response rating, Lambsquarter>
7

$$$$
>  <Compound>
COC(=O)C(C)Oc1cc(-c2nn3c(c2Cl)CCCC3)c(F)cc1Cl (stereo not drawn) [Compound 28]

>  <Test Target>
lambsquarters

>  <Plant response rating, Lambsquarter>
10

$$$$
>  <Compound>
CC(C)OC(=O)COc1cc(-c2nn3c(c2Cl)CCCC3)c(F)cc1Cl [Compound 39]

>  <Test Target>
lambsquarters

>  <Plant response rating, Lambsquarter>
9

$$$$
>  <Compound>
CCCCN1C(=O)COc2cc(F)c(-c3nn4c(c3Cl)CCCC4)cc21 [Compound 57]

>  <Test Target>
lambsquarters

>  <Plant response rating, Lambsquarter>
10

$$$$
>  <Compound>
Fc1cc(Cl)c(-c2ccccc2)cc1-c1nn2c(c1Cl)CCCC2 [Compound 46]

>  <Test Target>
lambsquarters

>  <Plant response rating, Lambsquarter>
9

$$$$
>  <Compound>
Oc1cc(-c2nn3c(c2Br)CCCC3)c(F)cc1Cl [Compound 81]

>  <Test Target>
lambsquarters

>  <Plant response rating, Lambsquarter>
10

$$$$
